So I've got a bunch of compounds here, and I need their IC50 values.
Test system: HeLa
protocol-summary: Cytotoxicity against human HeLa cells assessed as inhibition of cell proliferation after 48 hrs by MTT assay
Format: functional, cell-based
Express your answer in µM, writing the number without its unit.

Field request: IC50 | item: COC(C)(C)CCC[C@@](C)(O)[C@H]1CC[C@]2(C)[C@@H]1[C@H](O)C[C@@H]1[C@@]3(C)CC[C@H](O)C(C)(C)[C@@H]3CC[C@]12C
29.4

Reported IC50, compound CC1(C)CCC[C@](C)([C@H]2CC[C@]3(C)[C@@H]2[C@H](O)C[C@@H]2[C@@]4(C)CC(C#N)=C(O)C(C)(C)[C@@H]4CC[C@]23C)O1 : ____
12.7

###

System: HeLa
protocol-summary: Cytotoxicity against human HeLa cells assessed as inhibition of cell proliferation after 48 hrs by MTT assay
Assay type: functional, cell-based
Could you please report measured IC50 for the items listed next?

Endpoint output: IC50 of COC(C)(C)CCC[C@@](C)(O)[C@H]1CC[C@]2(C)[C@@H]1C(=O)C[C@@H]1[C@@]3(C)CC[C@H](O)C(C)(C)[C@@H]3CC[C@]12C . Value?
18 µM

Which IC50 value is on record for CC(C)(O)CCC[C@@](C)(O)[C@H]1CC[C@]2(C)[C@@H]1C(=O)C[C@@H]1[C@@]3(C)CC[C@H](O)C(C)(C)[C@@H]3CC[C@]12C ?
> 100 µM

Look up IC50 for this compound: CC1(C)CCC[C@](C)([C@H]2CC[C@]3(C)[C@@H]2[C@H](O)C[C@@H]2[C@@]4(C)Cc5c([nH]c6ccccc56)C(C)(C)[C@@H]4CC[C@]23C)O1
> 100 µM

Reported IC50, compound CC(C)(O)CCC[C@@](C)(O)[C@H]1CC[C@]2(C)[C@@H]1[C@H](O)C[C@@H]1[C@@]3(C)CCC(=O)C(C)(C)[C@@H]3CC[C@]12C : ____
> 100 µM

Dear colleague, I am looking for the recorded IC50 of the following compound: CC1(C)CCC[C@](C)([C@H]2CC[C@]3(C)[C@@H]2[C@H](O)C[C@@H]2[C@@]4(C)CCC(=O)C(C)(C)[C@@H]4CC[C@]23C)O1
66.4 µM

# IC50 lookup, item CC1(C)CCC[C@](C)([C@H]2CC[C@]3(C)[C@@H]2[C@H](O)C[C@@H]2[C@@]4(C)CC(C=O)C(=O)C(C)(C)[C@@H]4CC[C@]23C)O1 (stereo partly specified)
31.9 µM

Which IC50 value is on record for CC(C)(O)CCC[C@@](C)(O)[C@H]1CC[C@]2(C)[C@@H]1C(=O)C[C@@H]1[C@@]3(C)CCC(=O)C(C)(C)[C@@H]3CC[C@]12C ?
> 100 µM

Name the reported IC50 value associated with the compound CC1(C)CCC[C@](C)([C@H]2CC[C@]3(C)[C@@H]2[C@H](O)C[C@@H]2[C@@]4(C)Cc5cnoc5C(C)(C)[C@@H]4CC[C@]23C)O1
> 100 µM

Item under review: CC1(C)CCC[C@@](C)(O)[C@H]2CC[C@]3(C)[C@@H]2[C@@H](C[C@@H]2[C@@]4(C)CCC(=O)C(C)(C)[C@@H]4CC[C@]23C)O1 . Reported IC50?
> 100 µM

I would be grateful if you could share the reported IC50 for COC(C)(C)CCC[C@@](C)(O)[C@H]1CC[C@]2(C)[C@@H]1[C@H](O)C[C@@H]1[C@@](C)(CC(=O)O)[C@H](C(C)(C)C=O)CC[C@]12C .
> 100 µM

Reported IC50, compound Cc1ncc2c(n1)C(C)(C)[C@@H]1CC[C@]3(C)[C@H](C[C@@H](O)[C@@H]4[C@@H]([C@@]5(C)CCCC(C)(C)O5)CC[C@]43C)[C@@]1(C)C2 : ____
> 100 µM
